- Tested on: 276233-004-R-J1-PDC complex spheroid viability;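 also: spheroids exposed to drugs for seven days; 100% = DMSO vehicle control viability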
- Assay: Anticancer human tumor 276233-004-R-J1-PDC patient-derived colon adenocarcinoma cell line growth inhibition [GQUAD]
- Experimental Context: second compound 3.16 µM; first compound 0.316 µM; stronger effect = lower value
The molecules listed here are annotated with their viability, T/C.
Numbers only here, please. The scale is %.

Sample answers from the record:
Cc1cccc(N(C)C(=O)C2C(O)CCN2c2nc(C)cc(C(F)(F)F)c2C#N)c1 (stereo not drawn) + CN(C)c1ccc(Nc2c3ccc(NC(=O)CCN4CCCC4)cc3nc3cc(NC(=O)CCN4CCCC4)ccc23)cc1	50.6
CC1COCCN1c1cc(C2(O)CC3CCC(C2)O3)c2cnn(-c3ccn[nH]3)c2n1 (stereo not drawn) + Cc1cnc(CNC(=O)c2c(=O)c3ccc(N4CCCN(C)CC4)nc3n3c2sc2ccccc23)cn1	56.4

Q. Query (molecule): Cn1ncnc1[C@H]1c2n[nH]c(=O)c3cc(F)cc(c23)N[C@@H]1c1ccc(F)cc1 + CN(C)c1ccc(Nc2c3ccc(NC(=O)CCN4CCCC4)cc3nc3cc(NC(=O)CCN4CCCC4)ccc23)cc1 ; field requested: viability, T/C
A. 52.7
